The measured values listed here are drawn from patent US20230265151A1.

cAMP EC50 listing for selected binders.
targetOfAssay: T1, human GIP receptor (human) (UniProt P48546)
T1 sequence (looked up): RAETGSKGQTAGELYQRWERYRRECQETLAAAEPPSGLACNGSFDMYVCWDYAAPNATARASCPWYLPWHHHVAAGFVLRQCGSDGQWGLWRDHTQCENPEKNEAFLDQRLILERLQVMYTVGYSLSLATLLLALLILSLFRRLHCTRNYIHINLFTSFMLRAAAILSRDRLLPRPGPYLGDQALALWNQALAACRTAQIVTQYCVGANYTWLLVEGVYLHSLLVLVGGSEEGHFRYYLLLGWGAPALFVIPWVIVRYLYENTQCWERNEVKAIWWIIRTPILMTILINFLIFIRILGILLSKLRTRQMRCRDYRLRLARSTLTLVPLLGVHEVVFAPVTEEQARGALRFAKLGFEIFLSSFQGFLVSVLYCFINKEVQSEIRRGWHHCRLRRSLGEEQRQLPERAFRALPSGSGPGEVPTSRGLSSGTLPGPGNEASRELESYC
assayRemarks: cell-based or functional assay
The figure you give is taken to be in pM; do not add the unit.

{"binder": "YXEGTXTSDXXIXLDXKAQXKFIXXLIXGGPSSGAPPPS (Y-Aib-EGT-αMeF(2F)-TSD-4Pal-Aib-I-αMeL-LD-Orn-K((2-[2-(2-Amino-ethoxy)-ethoxy]-acetyl)2-(γ-Glu)-CO-(CH2)12-CO2H)AQ-Aib-K((2-[2-(2-Amino-ethoxy)-ethoxy]-acetyl)2-(γ-Glu)-CO-(CH2)12-CO2H)FI-(D-Glu)-αMeY-LI-Orn-GGPSSGAPPPS-NH2) [Example 406]", "cAMP EC50 [pM]": 8.96}

Turning now to a further binder:
Ask: Requested field: cAMP EC50. Item: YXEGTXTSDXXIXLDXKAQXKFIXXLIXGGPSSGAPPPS (Y-Aib-EGT-αMeF(2F)-TSD-4Pal-Aib-I-αMeL-LD-Orn-K((2-[2-(2-Amino-ethoxy)-ethoxy]-acetyl)2-(γ-Glu)-(10-(4-carboxyphenoxy)decanoyl))AQ-Aib-K((2-[2-(2-Amino-ethoxy)-ethoxy]-acetyl)2-(γ-Glu)-(10-(4-carboxyphenoxy)decanoyl))FI-(D-Glu)-αMeY-LI-Orn-GGPSSGAPPPS-NH2) [Example 408]
Result: 8.88
